Values were extracted from patent US20240299294A1.

test: Single-dose toxicokinetic study, plasma HCQ (Example 10); settings: male, mouse, in vivo, 16 sprays
recorded_metric: Kp at 0.25 h
Numbers only.

Respond only with Kp at 0.25 h recorded for CCN(CCO)CCCC(C)Nc1ccnc2cc(Cl)ccc12 (stereo not shown) [HCQ, Hydroxychloroquine] 51.5

---

experiment: Single-dose toxicokinetic study, plasma HCQ (Example 10); conditions: female, mouse, in vivo, 16 sprays
recorded_metric: concentration at 0.5 h
Be sure to follow the number with its unit.

Respond only with concentration at 0.5 h recorded for CCN(CCO)CCCC(C)Nc1ccnc2cc(Cl)ccc12 (stereo not shown) [HCQ, Hydroxychloroquine] 93.6 ng/mL

---

test: Single-dose toxicokinetic study, plasma HCQ (Example 10); settings: female, mouse, in vivo, 16 sprays
recorded_metric: Kp at 0.25 h
Give bare numbers.

Respond only with Kp at 0.25 h recorded for CCN(CCO)CCCC(C)Nc1ccnc2cc(Cl)ccc12 (stereo not shown) [HCQ, Hydroxychloroquine] 50.6

---

assay: in vivo; settings: mouse
recorded_metric: half-life

Respond only with half-life recorded for CCN(CCO)CCCC(C)Nc1ccnc2cc(Cl)ccc12 (stereo not shown) [HCQ, Hydroxychloroquine] 4.6 to 7.8 h

---

experiment: Dose range and dose response study of HCQ for lung delivery (Example 9); settings: male, mouse, in vivo, 16 sprays
recorded_metric: concentration at 0.083 h (ng/g)
One number for each entry, in ng/g.

Respond only with concentration at 0.083 h recorded for CCN(CCO)CCCC(C)Nc1ccnc2cc(Cl)ccc12 (stereo not shown) [HCQ, Hydroxychloroquine] 9510

---

experiment: Single-dose toxicokinetic study, plasma HCQ (Example 10); conditions: female, mouse, in vivo, 16 sprays
recorded_metric: Kp at 0.5 h
Answers are plain numbers.

Respond only with Kp at 0.5 h recorded for CCN(CCO)CCCC(C)Nc1ccnc2cc(Cl)ccc12 (stereo not shown) [HCQ, Hydroxychloroquine] 38

---

experiment: Dose range and dose response study of HCQ for lung delivery (Example 9); details: female, mouse, in vivo, 16 sprays
recorded_metric: concentration at 0.083 h (ng/g)
Give bare numbers, in ng/g.

Respond only with concentration at 0.083 h recorded for CCN(CCO)CCCC(C)Nc1ccnc2cc(Cl)ccc12 (stereo not shown) [HCQ, Hydroxychloroquine] 8820

---

assay: in vivo; parameters: species or system mice; conditions: mouse, inhaled or intranasal
recorded_metric: half-life (h)
Numbers only, in h.

Respond only with half-life recorded for CCN(CCO)CCCC(C)Nc1ccnc2cc(Cl)ccc12 (stereo not shown) [HCQ, Hydroxychloroquine] 4.6

---

assay: Dose range and dose response study of HCQ for lung delivery (Example 9); conditions: female, mouse, in vivo, 16 sprays
recorded_metric: concentration at 1 h (ng/g)
Give bare numbers, in ng/g.

Respond only with concentration at 1 h recorded for CCN(CCO)CCCC(C)Nc1ccnc2cc(Cl)ccc12 (stereo not shown) [HCQ, Hydroxychloroquine] 4040

---

assay: Estimation of HCQ concentration in alveolar lining fluid (ALF) (Example 11); details: mouse, in vivo, 10 sprays
recorded_metric: concentration at 10 min (µM)
Answers are plain numbers, in µM.

Respond only with concentration at 10 min recorded for CCN(CCO)CCCC(C)Nc1ccnc2cc(Cl)ccc12 (stereo not shown) [HCQ, Hydroxychloroquine] 476

---

assay: Dose range and dose response study of HCQ for lung delivery (Example 9); conditions: female, mouse, in vivo, 16 sprays
recorded_metric: concentration at 0.25 h (ng/g)
Give bare numbers, in ng/g.

Respond only with concentration at 0.25 h recorded for CCN(CCO)CCCC(C)Nc1ccnc2cc(Cl)ccc12 (stereo not shown) [HCQ, Hydroxychloroquine] 4510
